Data origin: patent US20220125947A1

Molecular target: Vg9/Vd1 T cell receptor on SKW3 cells (UniProt Q99603)
Sequence (Q99603 21-122): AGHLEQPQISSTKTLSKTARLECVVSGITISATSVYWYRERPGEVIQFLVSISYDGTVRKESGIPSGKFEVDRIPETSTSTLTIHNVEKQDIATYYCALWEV
Test: flow cytometry, dose-response binding at 37 C on SKW3 cells expressing Vg9/Vd1
Each entry below carries its reported Max. Activity (fold over background).
Simply state the number, no unit and no words.

In the examples that follow, each entry is paired with its recorded Max. Activity (fold over background).
- BINDER: "VG9B58 (antibody, human IgG1, kappa, V domains shown) VH: QVQLQESGPGLVKPSETLSLTCTVSGGSIKSSYWTWIRQPPGKGLEWIGYMFYLGSTNYNPSLKSRVTMSIDTSRNQFSLKLSSVTAADTAVYYCSRERPVLDAFDIWGQGTMVTVSS VL: DIQMTQSPSAMSASVGDRVTITCRASQDITNYLAWFQQKPGKVPKRLIYAASSLQGGVPSRFSGSGSGTEFTLTISSLQPEDFSTYYCLQHDTYPYTFGQGTKVDIKR"
  DATA VALUE: 350
- BINDER: "VG9B430 (antibody, human IgG1, kappa, V domains shown) VH: EVQLLESGGGLVKPGGSLRLSCSASGFTFSSYDMNWVRQAPGKGLEWVSSISSSSSYIYYADSVKGRFTISRDNAKNSLYLQMNSLRAEDTAVYHCARDVGVTTDYYYYGMDVWGQGTMVTVSS VL: EIVLTQSPGTLSLSPGDRATLSCRASQSVASSYLAWYQQKPGQSPRLLIYGASSRATGIPDRFSGSGSGTDFTLTISRLEPEDFAVYYCQQYGSSPPYTFGQGTKLEIKR"
  DATA VALUE: 325
- BINDER: "VG9B73 (antibody, human IgG1, kappa, V domains shown) VH: EVQLVQSGGGLVKPGGSLRLSCAASGFTFSNYDMNWVRQAPGKGLEWVSSISSSSSYIYYADSVKGRFTISRDNARNSLFLQMSSLRAEDTAVYYCAREIGVTGTTYYQDYGMDVWGQGTTVTVSS VL: EIVMTQSPGTLSLSPGERATLSCRASQSFSSNYLAWYQQKPGQAPRLLIYGASSRATGIPDRFSGSGSGTDFTLTISRLEPEDFALYYCQQYGSSPPFTFGQGTKVEIKR"
  DATA VALUE: 317

# context switch: different binder, same Max. Activity (fold over background)
**Q:** So what's the measured Max. Activity (fold over background) for this one? VG9B143 (antibody, human IgG1, lambda, V domains shown) VH: EVQLVESGGGLVQPGGSLRLSCAASGFTFSTYGMNWVRQAPGKGLEWISYISTSSYTIYYSDSVKGRFTVSRDNAKNSLYLQMNSLRDEDTAVYYCAREGDWWYFDLWGRGTTVTVSS VL: QSALTQPASVSGSPGQSITISCTGTSSDVGGYNYVSWYQQHPGKAPKLMIYEVSNRPSGVSYRFSGSKSGNTASLTISGLQAEDEADYYCSSYTSSSTLVFGGGTKLTVLG
**A:** 241
